- Run conditions: in acetonitrile, 301.15 K
Reported metric: solubility (mole fraction)
Please give the numeric answer without any surrounding text.

The recorded solubility (mole fraction) for entry `Cc1nc(CCl)nc2ccccc12` equals 0.174

---

- Run conditions: in cyclohexane, 301.15 K
Reported metric: solubility (mole fraction)

Reported solubility (mole fraction) of `Cc1nc(CCl)nc2ccccc12` : 0.0639

---

- Run conditions: in isopropanol, 311.15 K
Reported metric: solubility (mole fraction)
Respond using a number only.

solubility (mole fraction) measured on `Cc1nc(CCl)nc2ccccc12` = 0.196

---

- Run conditions: in isopropanol, 306.15 K
Reported metric: solubility (mole fraction)
Respond numerically, and do not add a unit to the figure.

get_value(item= `Cc1nc(CCl)nc2ccccc12` , readout=solubility (mole fraction)) returns 0.156
